target: T1, huIL-17RA-FLAG-polyHis (human, UniProt Q96F46 33-320); assay: binning; IL-17RA held by bead mAb J
T1 construct: also called IL-17RA-FLAG-pHis; wild-type IL-17RA
Assign Fulfilled whenever normalized MFI does not fall below 2000; assign Not fulfilled whenever it does.

## Input Could you please find out whether AMH12/AML12 (antibody, IgG2, V domains shown, human mAb from IgG2 XenoMouse mice; also called AM-12; antibody M) VH: QVQLVQSGAEVKKPGASVKVSCKASGYTLTSYGISWVRQAPGQGLEWMGWISTYKGNTNYAQKLQGRVTMTTDTSTSTAYMELRSLRSDDTAVYYCARKQLVFDYWGQGTLVTVSS VL: EIVMTQSPATLSVSPGERATLSCRASQSISSSLAWYQQKPGQAPRLLIYGASTRATGIPARFSGSGSGTEFTLTISSLQSENFAVYYCQQYDNWPLTFGGGTKVEIK has normalized MFI that meets 2000 or exceeds it?
## Output Not fulfilled

## Input Further, for AMH11/AML11 (antibody, IgG2, V domains shown, human mAb from IgG2 XenoMouse mice; also called AM-11; antibody A) VH: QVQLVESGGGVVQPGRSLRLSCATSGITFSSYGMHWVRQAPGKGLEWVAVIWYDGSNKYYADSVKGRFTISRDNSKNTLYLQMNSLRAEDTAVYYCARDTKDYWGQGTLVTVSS VL: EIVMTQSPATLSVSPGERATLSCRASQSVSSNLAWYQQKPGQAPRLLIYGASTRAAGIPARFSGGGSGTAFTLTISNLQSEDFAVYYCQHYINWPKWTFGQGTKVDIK ?
## Output Fulfilled

## Input Further, for AMH16/AML16 (antibody, IgG2, V domains shown, human mAb from IgG2 XenoMouse mice; also called AM-16; antibody O) VH: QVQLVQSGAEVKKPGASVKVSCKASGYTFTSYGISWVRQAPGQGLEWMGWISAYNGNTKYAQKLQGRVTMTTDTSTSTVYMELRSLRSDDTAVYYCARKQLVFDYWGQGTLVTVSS VL: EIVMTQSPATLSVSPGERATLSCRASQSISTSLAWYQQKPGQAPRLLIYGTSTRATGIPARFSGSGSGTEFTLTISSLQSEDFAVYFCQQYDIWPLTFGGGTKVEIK ?
## Output Not fulfilled

## Input Further, for AMH7/AML7 (antibody, IgG2, V domains shown, human mAb from IgG2 XenoMouse mice; also called AM-7; antibody D) VH: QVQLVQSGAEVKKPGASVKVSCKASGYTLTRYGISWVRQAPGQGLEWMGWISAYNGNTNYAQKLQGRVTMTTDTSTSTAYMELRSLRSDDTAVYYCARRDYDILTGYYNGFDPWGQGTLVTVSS VL: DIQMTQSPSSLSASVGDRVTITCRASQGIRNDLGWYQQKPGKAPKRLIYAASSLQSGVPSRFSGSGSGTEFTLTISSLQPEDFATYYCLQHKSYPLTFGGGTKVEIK ?
## Output Fulfilled

## Input Further, for AMH6/AML6 (antibody, IgG2, V domains shown, human mAb from IgG2 XenoMouse mice; also called AM-6; antibody E) VH: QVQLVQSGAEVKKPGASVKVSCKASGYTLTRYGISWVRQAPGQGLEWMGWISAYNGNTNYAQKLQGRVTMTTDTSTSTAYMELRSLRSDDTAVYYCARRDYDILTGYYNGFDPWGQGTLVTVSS VL: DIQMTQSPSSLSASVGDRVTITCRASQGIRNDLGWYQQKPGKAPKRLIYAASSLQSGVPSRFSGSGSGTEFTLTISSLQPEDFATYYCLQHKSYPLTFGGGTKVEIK ?
## Output Fulfilled

## Input Further, for AMH20/AML20 (antibody, IgG2, V domains shown, human mAb from IgG2 XenoMouse mice; also called AM-20; antibody R) VH: EVQLVESGGGLVQPGGSLRLSCAASGFTFSSYSMNWVRQAPGKGLEWVSFISARSSTIYYADSVKGRFTISRDNAKNSLYLQMNSLRDEDTAVYYCARPKVGGGMDVWGQGTTVTVSS VL: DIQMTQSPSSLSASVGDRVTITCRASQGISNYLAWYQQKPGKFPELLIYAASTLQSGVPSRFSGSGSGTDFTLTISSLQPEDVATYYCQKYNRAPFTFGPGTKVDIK ?
## Output Not fulfilled
